# MEASURED ON: TAS2R14 (Homo sapiens)
# Sequence (Q9NYV8 1-317): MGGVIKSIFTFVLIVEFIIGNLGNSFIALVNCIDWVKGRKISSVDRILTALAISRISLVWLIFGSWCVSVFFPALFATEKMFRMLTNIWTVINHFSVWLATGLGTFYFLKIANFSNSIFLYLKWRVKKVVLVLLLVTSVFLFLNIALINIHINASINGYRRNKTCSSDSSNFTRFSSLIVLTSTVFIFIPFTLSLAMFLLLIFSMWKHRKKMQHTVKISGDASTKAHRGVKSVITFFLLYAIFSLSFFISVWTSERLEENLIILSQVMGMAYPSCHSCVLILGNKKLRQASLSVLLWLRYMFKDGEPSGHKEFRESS
# TEST PROTOCOL: cell-based
EC50: recorded values

Worked set:
[[record]]
entry_smiles = "FC(F)(F)c1cc(Nc2ccccc2-c2nnn[nH]2)cc(OC2CC2)c1"
measured_on = "TAS2R14 (Homo sapiens)"
observation_type = "EC50"
result = "0.43 µM"

[[record]]
entry_smiles = "O=C(O)c1ccccc1Nc1ccc(Cl)c(C(F)(F)F)c1"
measured_on = "TAS2R14 (Homo sapiens)"
observation_type = "EC50"
result = "0.2 µM"

[[record]]
entry_smiles = "Cc1ccc(C(F)(F)F)cc1Nc1ccccc1-c1nnn[nH]1"
measured_on = "TAS2R14 (Homo sapiens)"
observation_type = "EC50"
result = "0.31 µM"


Continue with the next compound.
Print TAS2R14 (Homo sapiens) EC50 for `COc1cc(Nc2ccccc2C(=O)O)cc(C(F)(F)F)c1` .
0.2 µM

----------
Emax: recorded values
# MEASURED ON: TAS2R14 (Homo sapiens)
# TEST PROTOCOL: cell-based
# Parameters: species or system HEK293T
# COND: HEK-293T, read-out: Emax[%flu acid]
Write the value in % as a bare number.

Worked set:
[[record]]
entry_smiles = "COC(=O)c1cc(Nc2ccccc2C(=O)O)cc(C(F)(F)F)c1"
numeric_readout = 73

[[record]]
entry_smiles = "Cc1ccc(Nc2ccccc2C(=O)O)cc1OCc1cccc(F)c1"
numeric_readout = 70

[[record]]
entry_smiles = "COc1cc(Nc2ccccc2C(=O)O)cc(C(F)(F)F)c1"
numeric_readout = 87

[[record]]
entry_smiles = "O=[N+](O)c1cc(Nc2ccccc2-c2nnn[nH]2)cc(C(F)(F)F)c1"
numeric_readout = 80

[[record]]
entry_smiles = "Cc1ccc(C(F)(F)F)cc1Nc1ccccc1-c1nnn[nH]1"
numeric_readout = 90


Please supply the value of reported Emax for the item `FC(F)(F)c1cc(Nc2ccccc2-c2nnn[nH]2)ccc1N1CCOCC1`
50

Please supply the value of reported Emax for the item `COC(=O)c1ccccc1Nc1cccc(C(F)(F)F)c1`
47

Please supply the value of reported Emax for the item `COc1ccc(Nc2ccccc2C(=O)O)cc1OCc1ccc(Cl)cc1`
70

Please supply the value of reported Emax for the item `CCCCc1cc2cccc(C(=O)O)c2n1-c1cccc(C(F)(F)F)c1`
62

Please supply the value of reported Emax for the item `NC(=O)c1ccccc1Nc1cccc(C(F)(F)F)c1`
34
